Molecular target: T1, human IL-1RAcP on 293T/17-FR cells (human, UniProt Q9NPH3 21-570)
T1 sequence (looked up): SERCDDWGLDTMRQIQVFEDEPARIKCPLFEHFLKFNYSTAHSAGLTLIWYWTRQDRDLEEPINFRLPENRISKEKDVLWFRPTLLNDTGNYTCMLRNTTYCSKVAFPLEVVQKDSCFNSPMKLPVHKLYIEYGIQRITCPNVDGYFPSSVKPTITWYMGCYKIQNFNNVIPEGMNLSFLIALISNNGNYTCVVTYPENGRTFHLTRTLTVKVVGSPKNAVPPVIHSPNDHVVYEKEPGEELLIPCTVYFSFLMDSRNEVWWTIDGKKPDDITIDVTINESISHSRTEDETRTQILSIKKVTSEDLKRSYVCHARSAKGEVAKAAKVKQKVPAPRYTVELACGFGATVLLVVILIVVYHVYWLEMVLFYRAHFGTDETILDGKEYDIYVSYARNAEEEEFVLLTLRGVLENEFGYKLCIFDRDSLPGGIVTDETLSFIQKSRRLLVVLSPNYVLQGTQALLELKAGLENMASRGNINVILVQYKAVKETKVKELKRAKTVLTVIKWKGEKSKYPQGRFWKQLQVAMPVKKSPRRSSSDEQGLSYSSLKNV
Assay: cell-based or functional assay
ATTRIBUTE_MEASURED: functional reporter gene assay (% inhibition), 5 µg/mL mAb (%)
All answers are understood in %, so give the number only.

| BINDER | UNITS_OF_MEASURE | ENDPOINT_RESULT |
| --- | --- | --- |
| P013.S.02.B.E01 (antibody, V domains shown, rabbit monoclonal antibody; also called P013.A.00013.G07) VH: QSLEESGGRLVTPGTPLTLTCTVSGFSLSIYGMGWVRQAPGEGLEWIGSISSGGSTYYATWAKGRFTISKTSSTTLDLKITSPTTEDTATYFCVRSDGYTNGDYDTYFNLWGQGTLVTVS VL: DIVMTQTPASVSEPVGGTVTIRCQASQSISSWLSWYQQKPGQPPKLLIYQASALASGVSSRFIGSGYGTEFTLTISGVQSEDAATYYCQCTYGIGSNSDYGVAFGGGTEVVVK | % | 86 |
| P013.S.01.B.H04 (antibody, V domains shown, rabbit monoclonal antibody; also called P013.A.00014.G05) VH: QSVEESGGRLVTPGTPLTLTCTVSGFSLDSYAMGWVRQAPGKGLEWIGIINSYGSIYYASWAKGRFTISKTSTTVDLKMTSLTTEDTATYFCARSAYSNNGDRLHLWGQGTLVTVSS VL: DIVMTQTPSPVSGAVGGTVTIKCQASEDIYSNLAWYQQKPGQPPKLLIYYVSTLESGVPSRFKGSRSGTDYTLTISDLESADAATYYCQCTEGGSGSDYTFGGGTEVVVK | % | 54 |

Reported functional reporter gene assay (% inhibition), 5 µg/mL mAb ( P013.S.01.B.B04 (antibody, V domains shown, rabbit monoclonal antibody; also called P013.A.00086.E02) VH: QSVEESGGRLVTPGTPLTLTCTVSGIDLDNYAMGWVRQAPGKGLEYIGVISSDGFFYDASWAKGRFTISKASSTTVDLKMTGLTPEDTATYFCARDRGTSTGSLDLWGQGTLVTVSS VL: ALVMTQTPASVSEPVGGTVTIKCQASENIGNGLAWYQQKPGQPPNLLIYGASTLASGVPSRFSGSGYGTEFTLTVSDLESGDAATYYCQCTYWNPDYIGGAFGGGTEVVVT ) = 99
